Data provenance is patent US8815849B2.

Test system: HCV replicon (Huh-Luc cells, NS3-NS5B regions of HCV type 1b)
protocol-notes: HCV replicon assay (Huh-7 luc/neo, luciferase readout)
Assay type: cell-based
experimental-context: Huh-Luc replicon cells, three days incubation, luciferase activity; average if tested more than once; read-out: HCV-REP-HUH7LUC_EC50
parameter-measured: pEC50
In textbook form, pEC50 equals minus log to base ten of the concentration in mol/L.

// solved cases for pEC50 follow
- compound: "COC(=O)N[C@H](C(=O)N1CCCC1c1[nH]c2cc(-c3ccc4cc(-c5cnc([C@@H]6CCCN6C(=O)[C@@H](NC(=O)OC)C(C)C)[nH]5)ccc4c3)ccc2c(=O)c1Cl)C(C)C (single isomer, unassigned) [Compound 106b]"
  target-under-test: "HCV replicon (Huh-Luc cells, NS3-NS5B regions of HCV type 1b)"
  pEC50: 7.69
- compound: "COC(=O)N[C@H](C(=O)N1CCCC1c1[nH]c2cc(-c3ccc4cc(-c5cnc([C@@H]6CCCN6C(=O)[C@@H](NC(=O)OC)C(C)C)[nH]5)ccc4c3)ccc2c(=O)c1F)C(C)C (single isomer, unassigned) [Compound 110a]"
  target-under-test: "HCV replicon (Huh-Luc cells, NS3-NS5B regions of HCV type 1b)"
  pEC50: 10.32

The compound listed as COC(=O)N[C@H](C(=O)N1CCCC1c1[nH]c2cc(-c3ccc4cc(-c5cnc([C@@H]6CCCN6C(=O)[C@@H](NC(=O)OC)C(C)C)[nH]5)ccc4c3)ccc2c(=O)c1F)C(C)C (single isomer, unassigned) [Compound 110b] has a reported pEC50 of 9.32

The compound listed as COC(=O)N[C@H](C(=O)N1CCCC1c1cc(=O)c2cc(-c3ccc4cc(-c5cnc([C@@H]6CCCN6C(=O)[C@@H](NC(=O)OC)C(C)C)[nH]5)ccc4c3)ccc2[nH]1)C(C)C (single isomer, unassigned) [Compound 22b] has a reported pEC50 of 10.28

The compound listed as CC[C@H](C)[C@H](NC(=O)OC)C(=O)N1CCCC1c1cc(=O)c2cc(-c3ccc4cc(-c5cnc([C@@H]6CCCN6C(=O)[C@@H](NC(=O)OC)[C@@H](C)CC)[nH]5)ccc4c3)ccc2[nH]1 (stereo partly drawn) [Compound 24] has a reported pEC50 of 10.32

The compound listed as CC[C@H](C)[C@H](NC(=O)OC)C(=O)N1CCCC1c1cc(=O)c2cc(-c3ccc4cc(-c5cnc([C@@H]6CCCN6C(=O)[C@@H](NC(=O)OC)[C@@H](C)CC)[nH]5)ccc4c3)ccc2[nH]1 (single isomer, unassigned) [Compound 24a] has a reported pEC50 of 8.02

The compound listed as COC(=O)N[C@H](C(=O)N1CCCC1c1cc(=O)c2cc(-c3ccc4cc(-c5cnc([C@@H]6CCCN6C(=O)[C@@H](NC(=O)OC)C(C)C)[nH]5)ccc4c3)ccc2[nH]1)C(C)C (stereo partly drawn) [Compound 22] has a reported pEC50 of 10.12

The compound listed as COC(=O)N[C@H](C(=O)N1CCCC1c1cc(=O)c2ccc(-c3ccc4cc(-c5cnc([C@@H]6CCCN6C(=O)[C@@H](NC(=O)OC)C(C)C)[nH]5)ccc4c3)cc2[nH]1)C(C)C (stereo partly drawn) [Compound 13a] has a reported pEC50 of 9.04

The compound listed as COC(=O)N[C@H](C(=O)N1CCCC1c1cc(=O)c2cc(-c3ccc4cc(-c5cnc([C@@H]6CCCN6C(=O)[C@@H](NC(=O)OC)C(C)C)[nH]5)ccc4c3)ccc2[nH]1)C(C)C (single isomer, unassigned) [Compound 22a] has a reported pEC50 of 8.47

The compound listed as COC(=O)N[C@H](C(=O)N1CCCC1c1cc(=O)c2cc(-c3ccc4cc(-c5cnc([C@@H]6CCCN6C(=O)[C@@H](NC(=O)OC)[C@@H](C)OC)[nH]5)ccc4c3)ccc2[nH]1)[C@@H](C)OC (stereo partly drawn) [Compound 23b] has a reported pEC50 of 9.47

The compound listed as COC(=O)N[C@H](C(=O)N1CCCC1c1[nH]c2cc(-c3ccc4cc(-c5cnc([C@@H]6CCCN6C(=O)[C@@H](NC(=O)OC)C(C)C)[nH]5)ccc4c3)ccc2c(=O)c1Cl)C(C)C (single isomer, unassigned) [Compound 106a] has a reported pEC50 of 9.92

The compound listed as COC(=O)N[C@H](C(=O)N1CCCC1c1cc(=O)c2ccc(-c3ccc4cc(-c5cnc([C@@H]6CCCN6C(=O)[C@@H](NC(=O)OC)C(C)C)[nH]5)ccc4c3)cc2[nH]1)C(C)C (stereo partly drawn) [Compound 13] has a reported pEC50 of 10.55

###

Test system: LLC-MDR1 monolayers
Type: in vitro ADME
experimental-context: pig, LLC-PK1, 120 min
Description: Assay Description for the Measurement of Transepithelial Transport of Test Compounds Through LLC-MDR1 Monolayers The integrity of the cellular monolayer was assessed in each incubation well through the inclusion of the fluorescent, low permeability marker compound, Fluorescein. In detail, LLC-MDR1 cells (LLC-PK1 cells stably transduced with MDR1 in a trans-well system) were seeded on 24-well cell culture inserts (Millicell®-PCF, 0.4 μm, 13 mm Ø, 0.7 cm^2) at 400 000 cells/cm^2. […]
Recorded A->B permeability (Papp × 10^−6 cm/sec) in the presence the P-gp inhibitor GF120918, one value per entry.

- molecule: "COC(=O)N[C@H](C(=O)N1CCCC1c1[nH]c2cc(-c3ccc4cc(-c5cnc([C@@H]6CCCN6C(=O)[C@@H](NC(=O)OC)C(C)C)[nH]5)ccc4c3)ccc2c(=O)c1C)C(C)C (single isomer, unassigned) [Compound 102a]"
  recorded-value: "<0.6 10^−6 cm/sec"
- molecule: "COC(=O)N[C@H](C(=O)N1CCC[C@H]1C1=NS(=O)(=O)c2ccc(-c3ccc4cc(-c5cnc([C@@H]6CCCN6C(=O)[C@@H](NC(=O)OC)C(C)C)[nH]5)ccc4c3)cc2N1)C(C)C [Compound 84]"
  recorded-value: "0.4 10^−6 cm/sec"
- molecule: "COC(=O)N[C@H](C(=O)N1CCCC1c1[nH]c2cc(-c3ccc4cc(-c5cnc([C@@H]6CCCN6C(=O)[C@@H](NC(=O)OC)C(C)C)[nH]5)ccc4c3)ccc2c(=O)c1F)C(C)C (single isomer, unassigned) [Compound 110b]"
  recorded-value: "2.3 10^−6 cm/sec"
- molecule: "CC[C@H](C)[C@H](NC(=O)OC)C(=O)N1CCCC1c1cc(=O)c2ccc(-c3ccc4cc(-c5cnc([C@@H]6CCCN6C(=O)[C@@H](NC(=O)OC)C(C)C)[nH]5)ccc4c3)cc2[nH]1 (some centres unmarked) [Compound 13-A3]"
  recorded-value: "0.9 10^−6 cm/sec"
- molecule: "COC(=O)N[C@H](C(=O)N1CCCC1c1[nH]c2cc(-c3ccc4cc(-c5cnc([C@@H]6CCCN6C(=O)[C@@H](NC(=O)OC)C(C)C)[nH]5)ccc4c3)ccc2c(=O)c1F)C(C)C (single isomer, unassigned) [Compound 110a]"
  recorded-value: "0.4 10^−6 cm/sec"
- molecule: "COC(=O)N[C@H](C(=O)N1CCCCC1c1cc(=O)c2ccc(-c3ccc4cc(-c5cnc([C@@H]6CCCN6C(=O)[C@@H](NC(=O)OC)C(C)C)[nH]5)ccc4c3)cc2[nH]1)C(C)C (some centres unmarked) [Compound 76]"
  recorded-value: "3.1 10^−6 cm/sec"

Proceed to the following item.
The molecule listed as COC(=O)N[C@H](C(=O)N1CCC[C@H]1c1ncc(-c2ccc3cc(-c4ccc5c(=O)[nH]c([C@@H]6CC(C)(C)CN6C(=O)[C@@H](NC(=O)OC)C(C)C)nc5c4)ccc3c2)[nH]1)C(C)C [Compound 50] has a reported A->B permeability (Papp × 10^−6 cm/sec) in the presence the P-gp inhibitor GF120918 of 5.8 10^−6 cm/sec

###

Tested on: LLC-MDR1 monolayers
Assay type: in vitro ADME
experimental-context: pig, LLC-PK1, 120 min
Recorded A->B permeability (Papp × 10^−6 cm/sec) in the presence the P-gp inhibitor GF120918, one value per entry.

// solved cases for A->B permeability (Papp × 10^−6 cm/sec) in the presence the P-gp inhibitor GF120918 follow
- smiles-text: "COC(=O)N[C@H](C(=O)N1CCC[C@H]1C1=Nc2cc(-c3ccc4cc(-c5cnc([C@@H]6CCCN6C(=O)[C@@H](NC(=O)OC)C(C)C)[nH]5)ccc4c3)ccc2C2(COC2)N1)C(C)C"
  recorded-value: "7.8 10^−6 cm/sec"
- smiles-text: "COC(=O)N[C@H](C(=O)N1CCC[C@H]1C1=Nc2cc(-c3ccc4cc(-c5cnc([C@@H]6CCCN6C(=O)[C@@H](NC(=O)OC)C(C)C)[nH]5)ccc4c3)ccc2C(C)(C)N1)C(C)C"
  recorded-value: "4.8 10^−6 cm/sec"
- smiles-text: "COC(=O)N[C@H](C(=O)N1CCC[C@H]1c1ncc(-c2ccc3cc(-c4ccc5c(=O)[nH]c([C@@H]6CCCN6C(=O)[C@H](NC(=O)OC)c6ccccc6)nc5c4)ccc3c2)[nH]1)C(C)C"
  recorded-value: "5.5 10^−6 cm/sec"

Proceed to the following item.
Measured A->B permeability (Papp × 10^−6 cm/sec) in the presence the P-gp inhibitor GF120918 (LLC-MDR1 monolayers), entry COC(=O)N[C@H](C(=O)N1CCC[C@H]1c1ncc(-c2ccc3cc(-c4ccc5nc([C@@H]6CCCN6C(=O)[C@@H](NC(=O)OC)C(C)C)[nH]c(=O)c5c4)ccc3c2)[nH]1)C(C)C : 5.0 10^−6 cm/sec
